Origin of values: patent US7208521B2

Please provide measured pKi for the entries that follow.
Biological target: UniProt:P00760
Sequence (P00760 1-246): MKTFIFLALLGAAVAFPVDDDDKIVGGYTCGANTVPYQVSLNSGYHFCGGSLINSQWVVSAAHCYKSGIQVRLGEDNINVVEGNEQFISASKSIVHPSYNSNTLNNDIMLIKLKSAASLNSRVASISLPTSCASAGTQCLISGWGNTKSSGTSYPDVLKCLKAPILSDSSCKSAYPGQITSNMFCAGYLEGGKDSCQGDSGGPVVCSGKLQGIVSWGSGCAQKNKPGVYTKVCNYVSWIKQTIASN
Assay: In-vitro protease inhibition, chromogenic substrate, Dixon Ki
Format: biochemical
Conditions: 25° C., pH 8.0; read-out: Ki Trypsin
pKi: −log10 of the molar value.

Please give the measured pKi for this compound: CC(=O)Nc1ncc(S(=O)(=O)NCc2ccc(NC(=N)N)cc2)s1
< 3.00

Please give the measured pKi for this compound: N=C(N)Nc1ccc(CNC(=O)OCc2ccc([N+](=O)[O-])cc2)cc1
3.70

Please give the measured pKi for this compound: N=C(N)Nc1ccc(CNC(=O)Nc2ccccc2)cc1
< 3.00

Please give the measured pKi for this compound: CCOC(=O)NCc1ccc(NC(=N)N)cc1
< 3.00

Please give the measured pKi for this compound: N=C(N)Nc1ccc(CNC(=O)OC23C[C@H]4C[C@@H](C2)C[C@@H](C3)C4)cc1
< 3.00

Please give the measured pKi for this compound: CC(C)(C)OC(=O)NCc1ccc(NC(=N)N)cc1
< 3.00

Please give the measured pKi for this compound: N=C(N)Nc1ccc(N)cc1
< 3.00

Please give the measured pKi for this compound: CC(C)(C)OC(=O)NCC(=O)NCc1ccc(NC(=N)N)cc1
< 3.00

Please give the measured pKi for this compound: CC(C)(C)COC(=O)NCc1ccc(NC(=N)N)cc1
< 3.00

Please give the measured pKi for this compound: N=C(N)Nc1ccc(CNC(=O)NC23C[C@H]4C[C@@H](C2)C[C@@H](C3)C4)cc1
4.34

* * *

Target: Trypsin (UniProt P00760)
Sequence (P00760 1-246): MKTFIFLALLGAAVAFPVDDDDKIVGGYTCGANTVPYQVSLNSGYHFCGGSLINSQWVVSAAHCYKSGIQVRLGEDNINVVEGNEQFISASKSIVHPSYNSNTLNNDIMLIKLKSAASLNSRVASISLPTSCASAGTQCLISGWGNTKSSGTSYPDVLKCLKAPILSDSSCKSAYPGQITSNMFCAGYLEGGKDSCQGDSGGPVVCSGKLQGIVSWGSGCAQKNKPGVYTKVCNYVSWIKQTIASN
Assay: In-vitro protease inhibition, chromogenic substrate, Dixon Ki
Format: biochemical
Conditions: 25° C., pH 8.0; read-out: Ki Trypsin
Please provide measured Ki for the entries that follow.
Give the value in µM but do not write µM after it.

Please give the measured Ki for this molecule: CC(=O)Nc1ccc(S(=O)(=O)NCC(=O)NCc2ccc(NC(=N)N)cc2)cc1
42

Please give the measured Ki for this molecule: CC(C)c1cc(C(C)C)c(S(=O)(=O)NCC(=O)NCc2ccc(NC(=N)N)cc2)c(C(C)C)c1
37

* * *

Please provide measured Ki for the entries that follow.
Molecular target: Plasmin (Homo sapiens)
Sequence (P00747 581-810 limits assumed, species assumed): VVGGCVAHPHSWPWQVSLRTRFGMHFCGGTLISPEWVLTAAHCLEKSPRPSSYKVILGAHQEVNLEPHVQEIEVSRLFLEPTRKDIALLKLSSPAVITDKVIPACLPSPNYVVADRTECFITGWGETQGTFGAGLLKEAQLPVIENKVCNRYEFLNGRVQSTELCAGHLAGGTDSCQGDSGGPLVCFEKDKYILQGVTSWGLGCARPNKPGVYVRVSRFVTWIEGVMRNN
Sequence (P00747 97-580 partner limits assumed, species assumed): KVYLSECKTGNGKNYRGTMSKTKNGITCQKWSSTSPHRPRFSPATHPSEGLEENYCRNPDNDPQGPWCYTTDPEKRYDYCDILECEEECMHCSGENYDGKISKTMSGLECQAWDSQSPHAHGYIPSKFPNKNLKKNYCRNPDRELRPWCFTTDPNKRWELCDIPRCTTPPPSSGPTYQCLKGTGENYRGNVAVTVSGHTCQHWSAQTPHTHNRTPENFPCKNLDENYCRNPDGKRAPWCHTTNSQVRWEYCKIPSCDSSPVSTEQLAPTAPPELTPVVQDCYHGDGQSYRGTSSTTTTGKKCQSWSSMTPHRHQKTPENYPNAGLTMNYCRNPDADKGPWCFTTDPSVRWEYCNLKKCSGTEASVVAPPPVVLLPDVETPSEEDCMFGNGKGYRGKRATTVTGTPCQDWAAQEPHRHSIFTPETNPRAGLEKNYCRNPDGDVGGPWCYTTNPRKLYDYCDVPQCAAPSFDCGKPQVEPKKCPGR
Experiment: In-vitro protease inhibition, chromogenic substrate, Dixon Ki
Assay type: biochemical
Conditions: 25° C., pH 8.0
Experimental: The uPA inhibitor activity was determined by incubating 200 μl of Tris buffer (0.05 mol/l, containing the inhibitor, 0.154 mol/l NaCl, 5% ethanol, pH 8.0), 25 μl of substrate (Pefachrome UK or BZ-β-Ala-Gly-Arg-pNA in H2O; Pentapharm Ltd, Basle, Switzerland) and 50 μl of sc-urokinase (Ribosepharm GmbH, Haan, Germany) or another corresponding protease at 25° C. […] The Ki values were determined by linear regression according to Dixon by means of a computer program. […]

Please give the measured Ki for this molecule: N=C(N)Nc1ccc(CNC(=O)Nc2ccccc2)cc1
170 µM

Please give the measured Ki for this molecule: CC(C)(C)COC(=O)NCc1ccc(NC(=N)N)cc1
> 1000 µM

Please give the measured Ki for this molecule: CC(=O)Nc1ccc(S(=O)(=O)NCC(=O)NCc2ccc(NC(=N)N)cc2)cc1
> 1000 µM

Please give the measured Ki for this molecule: CC(C)c1cc(C(C)C)c(S(=O)(=O)NCC(=O)NCc2ccc(NC(=N)N)cc2)c(C(C)C)c1
> 1000 µM

Please give the measured Ki for this molecule: N=C(N)Nc1ccc(CN)cc1
> 1000 µM

Please give the measured Ki for this molecule: CCOC(=O)NCc1ccc(NC(=N)N)cc1
> 1000 µM
